- assayed.target: human CD33 on primary human monocyte-derived dendritic cells (human, UniProt P20138 18-364)
- Sequence (P20138 18-364): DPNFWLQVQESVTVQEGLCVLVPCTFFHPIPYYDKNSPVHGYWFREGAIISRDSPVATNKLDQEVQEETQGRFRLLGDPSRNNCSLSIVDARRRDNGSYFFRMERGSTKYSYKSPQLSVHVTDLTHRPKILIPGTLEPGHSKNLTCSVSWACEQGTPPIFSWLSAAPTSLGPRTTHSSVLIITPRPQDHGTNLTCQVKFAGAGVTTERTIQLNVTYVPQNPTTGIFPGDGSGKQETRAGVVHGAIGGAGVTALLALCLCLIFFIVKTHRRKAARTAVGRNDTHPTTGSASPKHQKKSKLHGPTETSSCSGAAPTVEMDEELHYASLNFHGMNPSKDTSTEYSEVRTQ
- assay.text: cell-based or functional assay
measurement.name: Receptor downregulation (EC50) (pM)
# unit: pM | format: bare number

[in] Record request: Receptor downregulation (EC50) value, item AB-63.18 (antibody, V domains shown) VH: QVQLVQSGAEVKKPGSSVKVSCKASGYTHTDYNLHWVRQAPGQGLEWIGFIYPSNGITGYAQKFQGRVTMTVDTSTSTVYMELSSLRSEDTAVYYCARSDVDYFDYWGQGTLVTVSS VL: DIVLTQSPDSLAVSLGERATINCRASQSVSTSTYSYMHWYQQKPGQPPKLLIKYESNLESGVPDRFSGSGSGTDFTLTISSLQAEDVAVYYCQHSWEIPLTFGQGTKLEIK
[out] 62.9
